Cited source: FireProtDB

Would you mind telling me the reported Tm of each entry?
B1: Osteomodulin, Q99983 (parent)
chain: MGFLSPIYVIFFFFGVKVHCQYETYQWDEDYDQEPDDDYQTGFPFRQNVDYGVPFHQYTLGCVSECFCPTNFPSSMYCDNRKLKTIPNIPMHIQQLYLQFNEIEAVTANSFINATHLKEINLSHNKIKSQKIDYGVFAKLPNLLQLHLEHNNLEEFPFPLPKSLERLLLGYNEISKLQTNAMDGLVNLTMLDLCYNYLHDSLLKDKIFAKMEKLMQLNLCSNRLESMPPGLPSSLMYLSLENNSISSIPEKYFDKLPKLHTLRMSHNKLQDIPYNIFNLPNIVELSVGHNKLKQAFYIPRNLEHLYLQNNEIEKMNLTVMCPSIDPLHYHHLTYIRVDQNKLKEPISSYIFFCFPHIHTIYYGEQRSTNGQTIQLKTQVFRRFPDDDDESEDHDDPDNAHESPEQEGAEGHFDLHYYENQE

Variants of: B1
Settings: Homo sapiens; pH 7.4; Thermal; DSC; PBS; transition: 2; structure 5YQ5; whole UniProt chain shown
Reply with just the number (in °C).

Asked: What does the data say about its Tm? Entry: N278R
Given back: 38.5

Asked: What does the data say about its Tm? Entry: E225R
Given back: 41.8

Asked: What does the data say about its Tm? Entry: E303R
Given back: 43.3

Asked: What does the data say about its Tm? Entry: D254R
Given back: 37

Asked: What does the data say about its Tm? Entry: E173R
Given back: 42.3

Asked: What does the data say about its Tm? Entry: E284R
Given back: 42.3

Asked: What does the data say about its Tm? Entry: E284R E303R
Given back: 43.8
